Tested On: γ-secretase (Homo sapiens, UniProt P49768)
Construct: The endogenous γ-secretase present in the isolated membranes; endogenous in cells
Assay Name: Isolated membrane γ-secretase assay, time-resolved fluorescence detection of Aβ
Assay Conditions: isolated membranes, about 90 minutes at 37 degrees C; read-out: Activity (IC50), Inhibition of β-Amyloid Peptide
Result Type: IC50

Value of IC50 reported for the compound C#CCC(O)[C@@H](C)N(c1cc(Cl)ccc1F)S(=O)(=O)c1ccc(Cl)cc1 (single isomer, unassigned) [Example 21A] is < 50 nM

IC50 measured on Cc1cc(C)c(C(O)[C@@H](C)N(c2cc(Cl)ccc2Cl)S(=O)(=O)c2ccc(Cl)cc2)c(C)c1 (single isomer, unassigned) [Example 16A] = 200 to 5000 nM

So for C[C@H](C(O)C1CCCC1)N(c1cc(Cl)ccc1Cl)S(=O)(=O)c1ccc(Cl)cc1 (mixture of isomers) , the logged IC50 turned out to be 200 to 5000 nM

Short answer for CC(O)C[C@@H](C)N(c1cc(Cl)ccc1Cl)S(=O)(=O)c1ccc(Cl)cc1 (mixture of isomers) : IC50 was 50 to 200 nM

Just so you know, measured IC50 for CC(O)C(C)N(c1cc(Cl)ccc1F)S(=O)(=O)c1ccc(Cl)cc1 (single isomer, unassigned) [Example 19A] came out at 50 to 200 nM

response.value for CC(O)C(C)N(c1cc(Cl)ccc1Cl)S(=O)(=O)c1ccc(Cl)cc1 (single isomer, unassigned) (field: IC50) = 50 to 200 nM
